# systemUnderTest: Eaf3 chromo barrel domain (1–113 aa) (Saccharomyces cerevisiae)
# Sequence (Q12432 1-113): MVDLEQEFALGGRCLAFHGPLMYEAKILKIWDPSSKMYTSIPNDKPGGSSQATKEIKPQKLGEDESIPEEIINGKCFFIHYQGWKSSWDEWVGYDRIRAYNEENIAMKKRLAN
# protocolNotes: 15N-1H HSQC NMR titration of 15N-labeled Eaf3
# Assay type: binding

molecule: C[N+](C)(C)CCCC[C@H](N)C(=O)O [trimethyllysine, trimethylated lysine, reference compound]
Kd: 8.6 to 19.2 mM

Recorded values, source paper PMC2582589.
